tested target: Cytochrome P450 1A2 (Homo sapiens) (UniProt P05177)
Sequence (P05177 whole entry, looked up): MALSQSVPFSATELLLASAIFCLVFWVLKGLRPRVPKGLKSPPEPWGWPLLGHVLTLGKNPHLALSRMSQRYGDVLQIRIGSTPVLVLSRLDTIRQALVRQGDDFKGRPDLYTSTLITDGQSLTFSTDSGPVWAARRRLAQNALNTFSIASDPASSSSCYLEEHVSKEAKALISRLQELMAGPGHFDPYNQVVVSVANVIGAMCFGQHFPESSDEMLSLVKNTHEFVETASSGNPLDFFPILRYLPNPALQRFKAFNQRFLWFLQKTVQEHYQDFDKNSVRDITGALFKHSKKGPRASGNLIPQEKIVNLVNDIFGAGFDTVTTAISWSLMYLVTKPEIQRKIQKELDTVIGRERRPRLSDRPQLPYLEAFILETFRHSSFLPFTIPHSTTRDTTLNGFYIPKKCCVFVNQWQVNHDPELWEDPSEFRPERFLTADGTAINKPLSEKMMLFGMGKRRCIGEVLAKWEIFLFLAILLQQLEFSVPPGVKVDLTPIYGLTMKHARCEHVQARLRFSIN
test name: Cytochrome P450 Family 1 Subfamily A Member 2 (CYP1A2) small molecule antagonists: luciferase reporter qHTS assay (AID 1671199); note: nearly all actives have a fitted effect of over 50% in size
test settings: P450-Glo CYP1A2 enzyme, luciferin luminescence, 1 h; series mostly up to 115 µM
Records with an inconclusive call do not appear. Activity calls are given as the source filed them. Calls come from the whole dose curve; as a rule, active = well fitted inhibition curve with a large enough effect in the repeat runs; inconclusive = weak or mixed curves; inactive = no such curve, though single readings can be large or run the other way.
Labels: active, inactive

> print(dat)
                                   molecule       cat
1  CC1=C(/C=C/C(C)=C/C=C/C(C)=C/CO)C(C)(C)CCC1    active
2                          Cc1ccc(C(=O)O)o1  inactive
3          CC(C)(C)C(=O)C1C(=O)c2ccccc2C1=O    active
4      CCCCC(CC)COC(C)=O (stereo not drawn)  inactive
5                                  OC1CCCC1  inactive
6                               CCc1ccccc1O    active
7                                  CCC(=O)O  inactive
8                          c1ccc2[nH]cnc2c1  inactive

Data origin, for the record: PubChem BioAssay (Tox21)
